system: SK-MEL-5; experiment: NCI tumour cell line growth inhibition, 48 h
Active and inactive are the calls of the source. Rule as the data show it: active = GI50 up to about 1.1 µM and inactive = higher.

Compound: O=C(NNc1nc(-c2ccccc2)cs1)C(F)(F)F
Study target: SK-MEL-5
GI50: 35.3 µM (inactive)
//
Compound: Nc1c([N+](=O)[O-])nc(Cl)c2nncn12
Study target: SK-MEL-5
GI50: > 100 µM (inactive)
//
Compound: O=[N+]([O-])c1ccc(C(O)/C(=N/O)c2nc3ccc(Cl)cc3nc2O)cc1 (stereo not given)
Study target: SK-MEL-5
GI50: > 100 µM (inactive)
//
Compound: NC12CC3CC(C1)CC(C(=O)O)(C3)C2
Study target: SK-MEL-5
GI50: > 100 µM (inactive)
//
Compound: CCOC(=O)[C@H]1Nc2c(cccc2[N+](=O)[O-])C2c3ccccc3CC21 (stereo not given in full)
Study target: SK-MEL-5
GI50: > 100 µM (inactive)
//
Compound: Clc1ccc(C2SCc3nc4ccccc4n32)cc1Cl (stereo not given)
Study target: SK-MEL-5
GI50: 9.08 µM (inactive)
//
Compound: COc1ccc(COC2CC(OC)OC(C)C2OC(=O)c2ccccc2)cc1 (stereo not given)
Study target: SK-MEL-5
GI50: 17 µM (inactive)
//
Compound: O=C1C(c2c(O)[nH]c3ccc(F)cc23)=Nc2ccccc21
Study target: SK-MEL-5
GI50: > 100 µM (inactive)
//
Compound: Cc1cc(S(=O)(=O)n2ccnc2Oc2ccccc2)c(SSc2cc(Cl)c(C)cc2S(=O)(=O)n2ccnc2Oc2ccccc2)cc1Cl
Study target: SK-MEL-5
GI50: 24.9 µM (inactive)
//
Compound: CC(=O)OCC1OC(n2cc(F)c(=O)[nH]c2=O)C(NC(=O)OCc2ccccc2)C(OC(C)=O)C1OC(C)=O (stereo not given)
Study target: SK-MEL-5
GI50: > 100 µM (inactive)

----------
tested on: MDA-N; experiment: NCI tumour cell line growth inhibition, 48 h
The source made the active and inactive calls. Cut-off read from the data, not from the text of the source: active = GI50 up to about 1.1 µM and inactive = higher.
Measured GI50, listed per entry.
Assay readout: GI50

Compound: O=c1n(/N=C/c2ccccc2)c(=O)n2n1C1C=CC2CC1
Assay readout: GI50
Measured result: > 100 µM (inactive)
--
Compound: COc1ccc(/C(Cl)=C(\CNc2ccccn2)c2ccccc2)cc1OC
Assay readout: GI50
Measured result: > 100 µM (inactive)
--
Compound: Cc1ccc(-c2c(C#N)c(-c3ccc([N+](=O)[O-])cc3)c(C#N)c(=O)n2NS(=O)(=O)c2ccccc2)cc1
Assay readout: GI50
Measured result: 84.3 µM (inactive)
--
Compound: CC(=O)NC1C(OCc2ccccc2)OC(CO)C(O)C1OCC(=O)N1CCCC1C(=O)N[C@@H](CCC(=O)NCCCCNc1c2ccccc2nc2cccc([N+](=O)[O-])c12)C(N)=O (stereo not given in full)
Assay readout: GI50
Measured result: 14.8 µM (inactive)
--
Compound: Cc1n[nH]c(=O)n1N1C(=O)CCCC1=O
Assay readout: GI50
Measured result: > 100 µM (inactive)
--
Compound: COc1cc(OCCN(C)C)c2[nH]c(C(=O)N3CC(CCl)c4c3cc(N)c3ccccc43)cc2c1 (stereo not given)
Assay readout: GI50
Measured result: < 0.01 µM (active)
--
Compound: Cc1csc2nc(-c3ccc([N+](=O)[O-])cc3)c(/C=N/N=C(N)N)n12
Assay readout: GI50
Measured result: 1.8 µM (inactive)
--
Compound: CCCCc1ccc(N2C(=O)c3cc(C)cnc3S2(=O)=O)cc1
Assay readout: GI50
Measured result: > 100 µM (inactive)
--
Compound: O=C(O)c1nc2ccc(C(F)(F)F)cc2[nH]c1=O
Assay readout: GI50
Measured result: > 100 µM (inactive)
--
Compound: Cc1c(O)nc(-n2[nH]c3c(c2=O)CCCC3)[nH]c1=O
Assay readout: GI50
Measured result: > 100 µM (inactive)
--
Compound: c1cncc(CNc2ncn[nH]2)c1
Assay readout: GI50
Measured result: > 100 µM (inactive)
--
Compound: CC(O)CNC1=CC(=O)C(=O)c2ccccc21 (stereo not given)
Assay readout: GI50
Measured result: 18.4 µM (inactive)
--
Compound: CN(C)c1ccc(/N=C2/NC(=N\c3ccccc3)/C(=N/c3ccccc3)S2)cc1
Assay readout: GI50
Measured result: > 100 µM (inactive)
--
Compound: Cc1cc(C)nc(SCCc2cccc[n+]2C)n1
Assay readout: GI50
Measured result: > 100 µM (inactive)
--
Compound: Clc1ccc(NCc2nnc(COc3ccc(OCc4nnc(CNc5ccc(Cl)cc5)o4)c(Cl)c3)o2)cc1
Assay readout: GI50
Measured result: 20.4 µM (inactive)
--
Compound: COC(=O)/C=C(\C(=O)OC)c1cc(C)c2cc(C(C)C)ccc(C)c1-2
Assay readout: GI50
Measured result: 19.5 µM (inactive)
--
Compound: CC(CN1NC12CCCC2)N1NC12CCCC2 (stereo not given)
Assay readout: GI50
Measured result: > 100 µM (inactive)
--
Compound: N[C@@H]1CCN(c2c(F)cc3c(=O)c(C(=O)O)cn4c3c2Oc2c-4ccc3c2ccc2ccccc23)C1
Assay readout: GI50
Measured result: 1.55 µM (inactive)
--
Compound: CCNC(=O)OCC1C2=C(C(=O)C(C)=C(N)C2=O)N2CC3C(N3C)C12OC (stereo not given)
Assay readout: GI50
Measured result: > 88.5 µM (inactive)
--
Compound: C/C(=N\N=C1/C(=O)OC(c2ccccc2)=C1C(=O)c1ccccc1)c1ccc([N+](=O)[O-])cc1
Assay readout: GI50
Measured result: 87.9 µM (inactive)
--
Compound: C[C@H](C/C=C/C(C)(C)O)[C@H]1CC[C@@]2(C)[C@@H]3CC[C@H]4C(C)(C)[C@@H](O)CC[C@@]45C[C@@]35CC[C@]12C
Assay readout: GI50
Measured result: 34.1 µM (inactive)
--
Compound: CC1(C)CCC2(C(=O)O)C(O)CC3(C)C(=CCC4C5(C)CCC(OC6OCC(O)C(O)C6OC6OCC(O)C(O)C6OC6OCC(O)C(OC7OC(CO)C(O)C(O)C7O)C6O)C(C)(C)C5CCC43C)C2C1 (stereo not given)
Assay readout: GI50
Measured result: 20.8 µM (inactive)
--
Compound: Cc1c2ccccc2cc2cccc[n+]12
Assay readout: GI50
Measured result: 37.8 µM (inactive)
--
Compound: N=C1OC(CN2CCN(c3ccccc3)CC2)CN1C(=S)Nc1ccccc1 (stereo not given)
Assay readout: GI50
Measured result: 84.9 µM (inactive)
--
Compound: O=C(/C=C/c1cccs1)c1ccc([N+](=O)[O-])cc1
Assay readout: GI50
Measured result: > 100 µM (inactive)
--
Compound: C=CCC1(O)c2ccccc2C(=O)c2c(O)ccc(O)c21 (stereo not given)
Assay readout: GI50
Measured result: 2.12 µM (inactive)
--
Compound: N#Cc1c(O)c(/N=N/c2ccccc2F)c(=O)n2c1[nH]c1ccccc12
Assay readout: GI50
Measured result: 22 µM (inactive)
--
Compound: Cc1cc(S(=O)(=O)n2ccnc2Oc2ccccc2)c(SSc2cc(Cl)c(C)cc2S(=O)(=O)n2ccnc2Oc2ccccc2)cc1Cl
Assay readout: GI50
Measured result: > 100 µM (inactive)
--
Compound: Oc1ccc2ccccc2c1/C=N/Cc1c(O)ccc2ccccc12
Assay readout: GI50
Measured result: 51.1 µM (inactive)
--
Compound: COc1cccc(-c2cc(O)c3c(C)cc(C)nc3n2)c1
Assay readout: GI50
Measured result: 0.067 µM (active)
--
Compound: COc1ccc2c(c1)C(=O)C1CCC(=O)N1C2c1ccc2c(c1)OCO2 (stereo not given)
Assay readout: GI50
Measured result: 8.32 µM (inactive)
--
Compound: CN1CCC(n2[nH]c(-c3ccccc3)c(Cc3ccccc3)c2=O)CC1
Assay readout: GI50
Measured result: > 100 µM (inactive)
--
Compound: COc1ccc(C(=O)C(Br)C(Br)C(=O)O)cc1 (stereo not given)
Assay readout: GI50
Measured result: 38.1 µM (inactive)
--
Compound: COc1ccc2c(c1O)C13CCN(C)C(C2)C1CCC1(C3)OCCO1 (stereo not given)
Assay readout: GI50
Measured result: > 100 µM (inactive)
--
Compound: c1ccc2sc(C3(N4CCCC4)CCCCCC3)cc2c1
Assay readout: GI50
Measured result: 15.7 µM (inactive)
--
Compound: Cc1ccc(S(=O)(=O)N/N=C/c2c(O)ccc3ccccc23)cc1
Assay readout: GI50
Measured result: 27.6 µM (inactive)
--
Compound: C1CCCN(NC2=NCCO2)CC1
Assay readout: GI50
Measured result: > 100 µM (inactive)
--
Compound: O=[N+]([O-])c1ccc(N/N=C2\C=CCCC2)c([N+](=O)[O-])c1
Assay readout: GI50
Measured result: > 100 µM (inactive)
--
Compound: O=c1c(Cc2ccc(Cl)cc2)nnc2sc(-c3ccc([N+](=O)[O-])cc3)nn12
Assay readout: GI50
Measured result: 24.7 µM (inactive)
--
Compound: N#Cc1cc2c(cc1C#N)/C(=N\c1cccc(N)n1)N/C2=N\c1cccc(N)n1
Assay readout: GI50
Measured result: 20.3 µM (inactive)

The reported measurements were obtained from ChEMBL document CHEMBL1201862.
